Listing: PBM binding z-score of selected sequences
# Test system: LXRa homodimer (NR concentration 270 nM)
# Test name: PBM binding z-score (relative to random genomic background probes); higher = stronger binding; sequences stand for … in GC…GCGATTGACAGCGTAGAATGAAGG
Give only the figure.

Study these solved cases before continuing.
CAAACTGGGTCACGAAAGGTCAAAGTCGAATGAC = 6.63
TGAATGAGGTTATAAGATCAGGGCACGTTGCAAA = 0.117
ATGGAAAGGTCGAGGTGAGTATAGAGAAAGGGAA = 0.547
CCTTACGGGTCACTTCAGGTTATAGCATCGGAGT = 2.3
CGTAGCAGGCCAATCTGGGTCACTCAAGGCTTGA = -0.711

Return the recorded PBM binding z-score value; entry: "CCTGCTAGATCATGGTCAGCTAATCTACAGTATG" -0.68

Return the recorded PBM binding z-score value; entry: "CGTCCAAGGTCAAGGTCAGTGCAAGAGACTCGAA" 1.19

Return the recorded PBM binding z-score value; entry: "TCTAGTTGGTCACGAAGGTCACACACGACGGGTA" 1.75

Return the recorded PBM binding z-score value; entry: "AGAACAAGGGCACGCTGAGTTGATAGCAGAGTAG" -0.369

Return the recorded PBM binding z-score value; entry: "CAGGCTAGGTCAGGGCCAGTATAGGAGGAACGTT" -0.274

Return the recorded PBM binding z-score value; entry: "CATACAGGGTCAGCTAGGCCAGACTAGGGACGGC" -0.135

Return the recorded PBM binding z-score value; entry: "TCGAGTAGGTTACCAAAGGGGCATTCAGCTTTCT" -0.577

----------
# System: RXRa DBDmut IVT, anti-RXR (DBD mutation: RXRa K156A/R161A, NR concentration 90 nM)
# Test name: PBM binding z-score (relative to random genomic background probes); higher = stronger binding; sequences stand for … in GC…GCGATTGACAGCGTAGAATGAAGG
# binning rule on PBM binding z-score: category 1 (below 0.03), category 2 (0.03 to below 1), category 3 (1 or more)

Use the examples below as a reference point.
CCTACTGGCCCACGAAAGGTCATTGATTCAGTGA = category 2
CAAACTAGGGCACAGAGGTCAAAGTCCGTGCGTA = category 3
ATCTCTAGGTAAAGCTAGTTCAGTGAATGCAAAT = category 1

State the band of "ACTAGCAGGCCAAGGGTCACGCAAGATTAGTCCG" category 2

State the band of "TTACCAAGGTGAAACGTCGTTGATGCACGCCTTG" category 1

----------
# Tested on: PPARg homodimer (NR concentration 180 nM)
# Test name: PBM binding z-score (relative to random genomic background probes); higher = stronger binding; sequences stand for … in GC…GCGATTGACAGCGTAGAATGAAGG
Property measured: PBM binding z-score
Give only the figure.

Study these solved cases before continuing.
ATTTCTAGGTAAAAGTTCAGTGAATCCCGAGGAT = 2.19
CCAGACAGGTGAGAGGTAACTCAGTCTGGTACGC = 0.989
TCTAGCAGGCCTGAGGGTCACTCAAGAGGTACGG = 0.706
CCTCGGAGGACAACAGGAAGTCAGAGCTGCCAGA = 0.0465
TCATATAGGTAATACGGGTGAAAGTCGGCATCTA = 0.552

Okay, next one:
Return the recorded PBM binding z-score value; entry: "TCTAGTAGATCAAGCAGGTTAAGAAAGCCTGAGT" 0.0496

----------
# Tested on: PPARg:RXRa 90nM:30nM, anti-RXR (NR concentration 90 nM, RXRa partner concentration 30 nM)
# Test name: PBM binding z-score (relative to random genomic background probes); higher = stronger binding; sequences stand for … in GC…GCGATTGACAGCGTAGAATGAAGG
Property measured: PBM binding z-score
Give only the figure.

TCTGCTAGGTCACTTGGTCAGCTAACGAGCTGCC = 2.28
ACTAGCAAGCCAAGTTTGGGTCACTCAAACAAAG = -0.56
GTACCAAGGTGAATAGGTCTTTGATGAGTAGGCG = 0.823
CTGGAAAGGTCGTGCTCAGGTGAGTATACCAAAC = 2.24
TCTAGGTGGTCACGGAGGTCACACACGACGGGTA = 3.96
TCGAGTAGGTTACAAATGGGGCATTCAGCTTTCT = 1.04
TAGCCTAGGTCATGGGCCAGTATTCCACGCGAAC = 2.47
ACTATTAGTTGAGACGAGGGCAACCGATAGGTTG = 0.316
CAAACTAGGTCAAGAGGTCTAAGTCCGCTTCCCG = 6.71
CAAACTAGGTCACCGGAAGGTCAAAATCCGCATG = 7.63

Return the recorded PBM binding z-score value; entry: "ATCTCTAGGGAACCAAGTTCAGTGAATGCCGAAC" 0.0789

Return the recorded PBM binding z-score value; entry: "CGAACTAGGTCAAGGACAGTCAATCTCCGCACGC" 5.59

Return the recorded PBM binding z-score value; entry: "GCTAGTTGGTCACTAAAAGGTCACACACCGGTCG" 2.6

Return the recorded PBM binding z-score value; entry: "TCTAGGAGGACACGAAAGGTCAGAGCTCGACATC" 2.51

Return the recorded PBM binding z-score value; entry: "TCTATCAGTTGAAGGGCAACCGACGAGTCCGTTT" 2.89

Return the recorded PBM binding z-score value; entry: "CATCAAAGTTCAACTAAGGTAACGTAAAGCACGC" 3.32

Return the recorded PBM binding z-score value; entry: "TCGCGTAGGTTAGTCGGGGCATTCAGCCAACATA" 0.992

----------
# System: PPARg DBDmut IVT, anti-PPARg (DBD mutation: PPARg1 K132A/R137A, NR concentration 270 nM)
# Test name: PBM binding z-score (relative to random genomic background probes); higher = stronger binding; sequences stand for … in GC…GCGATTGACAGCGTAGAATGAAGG
Property measured: PBM binding z-score
Give only the figure.

Study these solved cases before continuing.
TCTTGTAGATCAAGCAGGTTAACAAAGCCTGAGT = 0.44
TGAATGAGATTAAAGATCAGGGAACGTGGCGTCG = -0.126
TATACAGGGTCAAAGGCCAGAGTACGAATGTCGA = 1.49

Return the recorded PBM binding z-score value; entry: "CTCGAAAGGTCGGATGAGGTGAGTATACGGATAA" -0.0346

Return the recorded PBM binding z-score value; entry: "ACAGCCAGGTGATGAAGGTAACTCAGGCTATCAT" -0.803

Return the recorded PBM binding z-score value; entry: "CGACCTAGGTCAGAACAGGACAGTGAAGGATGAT" -0.795

Return the recorded PBM binding z-score value; entry: "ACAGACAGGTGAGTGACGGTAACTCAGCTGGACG" 0.557

Return the recorded PBM binding z-score value; entry: "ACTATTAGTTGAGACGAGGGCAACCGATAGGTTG" 0.574

Return the recorded PBM binding z-score value; entry: "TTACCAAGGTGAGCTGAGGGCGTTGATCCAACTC" -0.0146

Return the recorded PBM binding z-score value; entry: "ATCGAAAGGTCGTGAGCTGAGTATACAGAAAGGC" 0.76

Return the recorded PBM binding z-score value; entry: "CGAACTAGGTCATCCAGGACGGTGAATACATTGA" 0.711

Return the recorded PBM binding z-score value; entry: "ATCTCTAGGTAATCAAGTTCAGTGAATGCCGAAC" 0.455

----------
# System: PPARa:RXRa (NR concentration 270 nM, RXRa partner concentration 90 nM)
# Test name: PBM binding z-score (relative to random genomic background probes); higher = stronger binding; sequences stand for … in GC…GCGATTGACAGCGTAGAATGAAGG
The label depends only on PBM binding z-score: Fulfilled if it is at least 4, Not fulfilled if it is smaller.

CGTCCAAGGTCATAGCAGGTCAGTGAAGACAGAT = Fulfilled

Say whether "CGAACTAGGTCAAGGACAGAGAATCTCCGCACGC" shows PBM binding z-score of 4 or more. Fulfilled

----------
# Test system: LXRb:RXRa (NR concentration 270 nM, RXRa partner concentration 90 nM)
# Test name: PBM binding z-score (relative to random genomic background probes); higher = stronger binding; sequences stand for … in GC…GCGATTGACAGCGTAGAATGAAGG
# binning rule on PBM binding z-score: lower level: < 0.4; middle level: ≥ 0.4 and < 2; upper level: ≥ 2

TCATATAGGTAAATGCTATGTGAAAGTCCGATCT = middle level
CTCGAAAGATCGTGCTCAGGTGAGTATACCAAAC = lower level
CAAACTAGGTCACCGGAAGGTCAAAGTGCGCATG = upper level
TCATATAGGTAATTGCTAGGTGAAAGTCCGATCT = middle level
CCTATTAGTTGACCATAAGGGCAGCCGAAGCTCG = lower level
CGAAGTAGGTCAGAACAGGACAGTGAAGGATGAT = middle level
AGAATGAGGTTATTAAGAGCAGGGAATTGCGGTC = middle level
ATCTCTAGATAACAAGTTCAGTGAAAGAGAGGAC = lower level
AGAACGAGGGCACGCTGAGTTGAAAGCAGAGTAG = lower level
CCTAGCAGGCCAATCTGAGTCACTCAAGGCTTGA = lower level

State the band of "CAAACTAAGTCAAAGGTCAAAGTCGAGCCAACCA" upper level

State the band of "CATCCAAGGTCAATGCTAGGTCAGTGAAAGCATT" upper level

State the band of "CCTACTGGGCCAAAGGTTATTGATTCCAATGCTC" middle level

State the band of "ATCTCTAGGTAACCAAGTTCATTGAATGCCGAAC" middle level

State the band of "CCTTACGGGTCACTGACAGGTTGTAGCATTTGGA" upper level

State the band of "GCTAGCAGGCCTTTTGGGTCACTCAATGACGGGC" lower level
